For each record, write down the corresponding average particle diameter of the resulting particles.
# PROTOCOL_NOTES: Average particle diameter by BET type specific surface area analyzer
# Assay type: physicochemical
# CONDITIONS_USED: after pulverization; BET method

// query average particle diameter of the resulting particles value for entry CCC(=O)OCC(=O)[C@@]1(OC(=O)CC)[C@@H](C)C[C@H]2[C@@H]3CCC4=CC(=O)C=C[C@]4(C)[C@@]3(Cl)[C@@H](O)C[C@@]21C [Comparative Example 5, beclometasone dipropionate]
730 nm

Record: COc1ccc2c(c1)c(CC(=O)O)c(C)n2C(=O)c1ccc(Cl)cc1
1,060 nm

Record: CCC(=O)O[C@]1(C(=O)SCF)[C@H](C)C[C@H]2[C@@H]3C[C@H](F)C4=CC(=O)C=C[C@]4(C)[C@@]3(F)[C@@H](O)C[C@@]21C [Example 21, fluticasone propionate]
92 nm

Record: CCC(=O)O[C@]1(C(=O)SCF)[C@H](C)C[C@H]2[C@@H]3C[C@H](F)C4=CC(=O)C=C[C@]4(C)[C@@]3(F)[C@@H](O)C[C@@]21C [Example 18, fluticasone propionate]
108 nm

Record: COc1cc(C(=O)NS(=O)(=O)c2ccccc2C)ccc1Cc1cn(C)c2ccc(NC(=O)OC3CCCC3)cc12
558 nm

====

# PROTOCOL_NOTES: Average particle diameter by BET type specific surface area analyzer
# Format: physicochemical
# CONDITIONS_USED: before pulverization; BET method
For each record, write down the corresponding average particle diameter of the starting organic compound.

// query average particle diameter of the starting organic compound value for entry COc1cc(C(=O)NS(=O)(=O)c2ccccc2C)ccc1Cc1cn(C)c2ccc(NC(=O)OC3CCCC3)cc12 [zafirlukast]
5,347 nm

Record: COc1ccc2c(c1)c(CC(=O)O)c(C)n2C(=O)c1ccc(Cl)cc1 [indomethacin]
3,980 nm

Record: CCC(=O)O[C@]1(C(=O)SCF)[C@H](C)C[C@H]2[C@@H]3C[C@H](F)C4=CC(=O)C=C[C@]4(C)[C@@]3(F)[C@@H](O)C[C@@]21C [fluticasone propionate]
7,850 nm

Record: CC(=O)OCC(=O)[C@@]1(O)CC[C@H]2[C@@H]3CCC4=CC(=O)CC[C@]4(C)[C@H]3C(=O)C[C@@]21C [cortisone acetate]
1,060 nm

Record: CC(C)Cc1ccc(C(C)C(=O)O)cc1 (stereo not drawn) [ibuprofen]
18,050 nm

Record: CC1=C(/C=C/C(C)=C/C=C/C(C)=C/C=C/C=C(C)/C=C/C=C(C)/C=C/C2=C(C)CCCC2(C)C)C(C)(C)CCC1 [β-carotene]
1,720 nm

Record: Clc1ccc(COC(Cn2ccnc2)c2ccc(Cl)cc2Cl)c(Cl)c1 (stereo not drawn) [miconazole]
10,900 nm

Record: CCCCCCCCOc1c(O)c2ccc(NC(=O)C=Cc3cc(OC)c(O)c(OC)c3)cc2n(C)c1=O [quinolinone derivative]
1,280 nm

Record: CCC(=O)OCC(=O)[C@@]1(OC(=O)CC)[C@@H](C)C[C@H]2[C@@H]3CCC4=CC(=O)C=C[C@]4(C)[C@@]3(Cl)[C@@H](O)C[C@@]21C [beclometasone dipropionate]
1,820 nm

====

For each record, write down the corresponding average particle diameter of the resulting particles.
# PROTOCOL_NOTES: Average particle diameter by BET type specific surface area analyzer
# Type: physicochemical
# CONDITIONS_USED: after pulverization; BET method
Provide only the numeric value, understood in nm.

// query average particle diameter of the resulting particles value for entry CCC(=O)O[C@]1(C(=O)SCF)[C@H](C)C[C@H]2[C@@H]3C[C@H](F)C4=CC(=O)C=C[C@]4(C)[C@@]3(F)[C@@H](O)C[C@@]21C [Example 22, fluticasone propionate]
70

Record: CC1=C(/C=C/C(C)=C/C=C/C(C)=C/C=C/C=C(C)/C=C/C=C(C)/C=C/C2=C(C)CCCC2(C)C)C(C)(C)CCC1
570

Record: CCCCCCCCOc1c(O)c2ccc(NC(=O)C=Cc3cc(OC)c(O)c(OC)c3)cc2n(C)c1=O [Comparative Example 6]
620

Record: Clc1ccc(COC(Cn2ccnc2)c2ccc(Cl)cc2Cl)c(Cl)c1 (centres unmarked)
651

Record: CCC(=O)O[C@]1(C(=O)SCF)[C@H](C)C[C@H]2[C@@H]3C[C@H](F)C4=CC(=O)C=C[C@]4(C)[C@@]3(F)[C@@H](O)C[C@@]21C [Example 23, fluticasone propionate]
109

The measurements presented in this section are drawn from patent US8226983B2.
